FYI, the data here is from patent US4337199A.

Give measured MIC for each item. Keep answers brief.
Tested on: Klebsiella pneumoniae K-13
experiment_description: minimum inhibitory concentration, agar dilution assay
Assay type: cell-based
assay_conditions: K13, agar dilution, 35° C., 20 hours, read-out: minimum inhibitory concentration
Expressed in µg/mL, but write only the number.

// query MIC value for entry CC(O)C1C(=O)N2C(C(=O)O)=C(Sc3ccncc3)CC12 (stereo not shown) 25

// query MIC value for entry CC(=O)NCCSC1=C(C(=O)O)N2C(=O)C(C(C)O)C2C1 (stereo not shown) [PS-3B, reference compound] 8.5

// query MIC value for entry CCC1C(=O)N2C(C(=O)O)=C(Sc3ncccn3)CC12 (stereo not shown) 12.5

// query MIC value for entry CC(O)C1C(=O)N2C(C(=O)O)=C(Sc3ncccn3)CC12 (stereo not shown) 25
